pIC50: −log10 of the molar value.
Collected set of pIC50 measured with Receptor tyrosine-protein kinase erbB-2 (Homo sapiens) across studies.

>  <COMPOUND>
CN(C)C/C=C/C(=O)N1CCOc2c1ccc1ncnc(Nc3ccc(OCc4cccc(F)c4)c(F)c3)c21

>  <pIC50>
≥ 7.30

$$$$
>  <COMPOUND>
CN(C)C1CCN(C(=O)c2sc3ncc(C#N)c4c3c2NC(=O)N4c2c(Cl)ccc3c2OCO3)CC1

>  <pIC50>
4.87

$$$$
>  <COMPOUND>
O=C(/C=C/CN1CCCC1)N1CCOc2c1ccc1ncnc(Nc3ccc(Oc4ccccc4)cc3)c21

>  <pIC50>
≥ 7.30

$$$$
>  <COMPOUND>
CC(C)OCCOc1cc2ncnc(Nc3ccc(F)c(Cl)c3)c2cc1NC(=O)/C=C/CN(C)C

>  <pIC50>
7.08

$$$$
>  <COMPOUND>
CCCCOc1cc(Nc2ccc(S(N)(=O)=O)cc2)nc(N)c1C(=O)c1c(F)cccc1F

>  <pIC50>
6.00

$$$$
>  <COMPOUND>
COc1cc2c(Nc3ccc(Cl)c(Cl)c3)ncnc2cc1OCC1CCC1

>  <pIC50>
> 7.30

$$$$
>  <COMPOUND>
O=C(O)C(Cc1ccccc1)NCc1ccc(-c2ccc3ncnc(Nc4ccc(OCc5cccc(F)c5)c(Cl)c4)c3c2)o1 (centres unmarked)

>  <pIC50>
> 5.00

$$$$
>  <COMPOUND>
COc1cc2c(Nc3ccc(Cl)c(Cl)c3)ncnc2cc1OCc1nc(N2CCN(C(=O)OC(C)(C)C)CC2)no1

>  <pIC50>
> 7.30

$$$$

* * *

pIC50: −log10 of the molar value.
Collected set of pIC50 measured with Receptor tyrosine-protein kinase erbB-2 (Homo sapiens, UniProt P04626) across studies.

>  <COMPOUND>
COc1cc(Nc2ncnc(-n3c(NCc4cccc(Cl)c4)nc4ccccc43)n2)cc(OC)c1OC

>  <TESTED_ON>
Receptor tyrosine-protein kinase erbB-2 (Homo sapiens, UniProt P04626)

>  <pIC50>
< 5.06

$$$$
>  <COMPOUND>
Brc1cccc(Nc2ncnc(Nc3ccc4c(cnn4Cc4ccccc4)c3)n2)c1

>  <TESTED_ON>
Receptor tyrosine-protein kinase erbB-2 (Homo sapiens, UniProt P04626)

>  <pIC50>
5.13 to 5.29

$$$$
>  <COMPOUND>
Cc1[nH]c(=O)[nH]c(=O)c1S(=O)(=O)Nc1cccc(-c2nc(C(C)C)sc2-c2ccnc(Nc3ccc(N4CCOCC4)nc3)n2)c1

>  <TESTED_ON>
Receptor tyrosine-protein kinase erbB-2 (Homo sapiens, UniProt P04626)

>  <pIC50>
< 6.00

$$$$
>  <COMPOUND>
CN(c1cccc(Cl)c1)c1ncnc(Nc2ccc(NC(=O)OC(C)(C)C)cc2)n1

>  <TESTED_ON>
Receptor tyrosine-protein kinase erbB-2 (Homo sapiens, UniProt P04626)

>  <pIC50>
5.09 to 5.25

$$$$
>  <COMPOUND>
O=C(O)CCNC(=O)c1ccc(Nc2ncnc(Nc3cc(-c4ccco4)[nH]n3)n2)cc1

>  <TESTED_ON>
Receptor tyrosine-protein kinase erbB-2 (Homo sapiens, UniProt P04626)

>  <pIC50>
5.26 to 6.04

$$$$
>  <COMPOUND>
CCOc1cccc(Nc2ncnc(Nc3cc(-c4ccc(C(=O)OC)cc4)n[nH]3)n2)c1

>  <TESTED_ON>
Receptor tyrosine-protein kinase erbB-2 (Homo sapiens, UniProt P04626)

>  <pIC50>
5.09 to 5.25

$$$$
>  <COMPOUND>
COc1cc(CNc2ncnc(N(C)c3cccc(Cl)c3)n2)cc(OC)c1OC

>  <TESTED_ON>
Receptor tyrosine-protein kinase erbB-2 (Homo sapiens, UniProt P04626)

>  <pIC50>
< 4.97

$$$$
>  <COMPOUND>
CCNc1nc(-c2cc(C)cc(OC)c2)c(-c2ccnc(Nc3ccc(N4CCS(=O)(=O)CC4)nc3)n2)s1

>  <TESTED_ON>
Receptor tyrosine-protein kinase erbB-2 (Homo sapiens, UniProt P04626)

>  <pIC50>
< 6.00

$$$$
>  <COMPOUND>
CC(C)c1nc(-c2ccc(F)c(NS(=O)(=O)c3ccccc3C#N)c2)c(-c2ccnc(Nc3ccc(N4CCOCC4)nc3)n2)s1

>  <TESTED_ON>
Receptor tyrosine-protein kinase erbB-2 (Homo sapiens, UniProt P04626)

>  <pIC50>
6.00 to 7.00

$$$$
>  <COMPOUND>
CC(C)c1nc(-c2cccc(NS(=O)(=O)c3cnn(C)c3)c2)c(-c2ccnc(Nc3ccc(N4CCOCC4)nc3)n2)s1

>  <TESTED_ON>
Receptor tyrosine-protein kinase erbB-2 (Homo sapiens, UniProt P04626)

>  <pIC50>
< 6.00

$$$$
>  <COMPOUND>
O=C(O)C(CS)NCc1ccc(-c2ccc3ncnc(Nc4ccc(OCc5cccc(F)c5)c(Cl)c4)c3c2)o1 (stereo not drawn)

>  <TESTED_ON>
Receptor tyrosine-protein kinase erbB-2 (Homo sapiens, UniProt P04626)

>  <pIC50>
> 5.00

$$$$
>  <COMPOUND>
c1ccc(CNc2nc3ccccc3n2-c2ncnc(Nc3cccc(Cc4nnn[nH]4)c3)n2)nc1

>  <TESTED_ON>
Receptor tyrosine-protein kinase erbB-2 (Homo sapiens, UniProt P04626)

>  <pIC50>
5.30 to 6.08

$$$$
>  <COMPOUND>
CC(C)Nc1ncccc1-c1ncnc(Nc2ccc(N3CCOCC3)cc2)n1

>  <TESTED_ON>
Receptor tyrosine-protein kinase erbB-2 (Homo sapiens, UniProt P04626)

>  <pIC50>
5.21 to 5.99

$$$$
>  <COMPOUND>
NC(CCCNCc1ccc(-c2ccc3ncnc(Nc4ccc(F)c(Cl)c4)c3c2)o1)C(=O)O (stereo not drawn)

>  <TESTED_ON>
Receptor tyrosine-protein kinase erbB-2 (Homo sapiens, UniProt P04626)

>  <pIC50>
> 5.00

$$$$
>  <COMPOUND>
CC(C)c1nc(-c2cccc(NS(=O)(=O)c3c(F)cccc3F)c2)c(-c2ccnc(Nc3ccc(N4CCOCC4)c(F)c3)n2)o1

>  <TESTED_ON>
Receptor tyrosine-protein kinase erbB-2 (Homo sapiens, UniProt P04626)

>  <pIC50>
< 6.00

$$$$
